Data provenance is paper PMC7162861.

Each record here notes measured logP.
# TEST DETAILS: Experimental log P, shake-flask method
# Type: physicochemical
# CONDITION INFO: n-octanol/phosphate buffer pH 7.4, read-out: Exp. Log P

Use these answered entries as a reference point.
# MOLECULAR STRING, MEASURED
records = [
    ("O=Cc1ccc(-c2cn3ccnc3c(-c3ccc4c(c3)ncn4C3CCCCC3)n2)cc1", 0.23),
    ("COc1ccccc1-c1cn2ccnc2c(-c2ccc3c(c2)ncn3C2CCCCC2)n1", 1.88),
    ("FC(F)(F)c1cccc(-c2cn3ccnc3c(-c3ccc4c(c3)ncn4C3CCCCC3)n2)c1", 1.67),
    ("c1cn2cc(-c3ccc4ncn(C5CCCCC5)c4c3)nc(-c3ccc4c(c3)ncn4C3CCCCC3)c2n1", 1.77),
    ("COc1ccc(-c2cn3ccnc3c(-c3ccc4c(c3)ncn4C3CCCCC3)n2)cc1", 1.44),
    ("CCc1ccc(-c2cn3ccnc3c(-c3ccc4c(c3)ncn4C3CCCCC3)n2)cc1", 1.74),
]

logP reported for this molecule Brc1ccc(-c2cn3ccnc3c(-c3ccc4c(c3)ncn4C3CCCCC3)n2)cc1 : 2.05

logP reported for this molecule c1csc(-c2cn3ccnc3c(-c3ccc4c(c3)ncn4C3CCCCC3)n2)c1 : 1.37

logP reported for this molecule c1cn2cc(-c3ccsc3)nc(-c3ccc4c(c3)ncn4C3CCCCC3)c2n1 : 1.63
